Where do the numbers come from? From patent US9096593B2.

Can you tell me IC50 for the items I'm about to list?
system name: CYP2D6 (Homo sapiens (Human))
Sequence (P10635 whole entry): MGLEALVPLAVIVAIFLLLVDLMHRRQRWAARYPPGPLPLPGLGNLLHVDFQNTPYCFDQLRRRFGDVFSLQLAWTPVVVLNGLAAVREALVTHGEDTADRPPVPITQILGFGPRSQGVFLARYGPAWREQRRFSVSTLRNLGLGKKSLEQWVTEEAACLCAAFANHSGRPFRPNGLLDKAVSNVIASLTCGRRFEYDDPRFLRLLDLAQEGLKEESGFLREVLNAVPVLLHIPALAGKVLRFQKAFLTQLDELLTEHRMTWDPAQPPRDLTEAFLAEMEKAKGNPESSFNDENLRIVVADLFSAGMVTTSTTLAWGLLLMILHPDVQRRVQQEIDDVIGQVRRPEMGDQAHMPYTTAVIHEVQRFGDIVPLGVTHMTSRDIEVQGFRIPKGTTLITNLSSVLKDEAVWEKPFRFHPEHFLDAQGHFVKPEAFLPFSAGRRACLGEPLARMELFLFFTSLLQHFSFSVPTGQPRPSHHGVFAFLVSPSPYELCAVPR
test description: CYP enzyme inhibition, fluorescent substrate
protocol conditions: read-out: Cyp IC50 (μM) 2D6

Here are 4 compounds together with their reported answers.
INSERT INTO results (compound, observed_measurement) VALUES
  ('Cc1cc(CNc2ccc(Cc3c[nH]c4ncc(Cl)cc34)c(F)n2)ccn1 [Compound P-2075]', '> 10 µM'),
  ('COc1cnc2[nH]cc(Cc3ccc(NCc4ccc(OC)nc4)nc3F)c2c1 [Compound P-2030]', '> 10 µM'),
  ('Cc1cnc2[nH]cc(Cc3ccc(NCc4ccnc(F)c4)nc3F)c2c1 [Compound P-2118]', '> 10 µM'),
  ('Cc1cnc2[nH]cc(Cc3ccc(NCc4ccc(Cl)nc4)nc3F)c2c1 [Compound P-2088]', '> 10 µM');

Parameter requested: IC50. Apply to each item below.
1. Cc1cnc2[nH]cc(Cc3cnc(NCc4cccc(C)n4)nc3)c2c1 [Compound P-2079]
2. COc1ncc(F)cc1CNc1ccc(Cc2c[nH]c3ncc(NC(C)=O)cc23)c(F)n1 [Compound P-1669]

**Result**
1. > 10 µM
2. > 10 µM

====

Exercise: state measured IC50 for each of the compounds provided.
system name: CYP3A4(BQ) (Homo sapiens (Human), UniProt P08684)
Sequence (P08684 whole entry): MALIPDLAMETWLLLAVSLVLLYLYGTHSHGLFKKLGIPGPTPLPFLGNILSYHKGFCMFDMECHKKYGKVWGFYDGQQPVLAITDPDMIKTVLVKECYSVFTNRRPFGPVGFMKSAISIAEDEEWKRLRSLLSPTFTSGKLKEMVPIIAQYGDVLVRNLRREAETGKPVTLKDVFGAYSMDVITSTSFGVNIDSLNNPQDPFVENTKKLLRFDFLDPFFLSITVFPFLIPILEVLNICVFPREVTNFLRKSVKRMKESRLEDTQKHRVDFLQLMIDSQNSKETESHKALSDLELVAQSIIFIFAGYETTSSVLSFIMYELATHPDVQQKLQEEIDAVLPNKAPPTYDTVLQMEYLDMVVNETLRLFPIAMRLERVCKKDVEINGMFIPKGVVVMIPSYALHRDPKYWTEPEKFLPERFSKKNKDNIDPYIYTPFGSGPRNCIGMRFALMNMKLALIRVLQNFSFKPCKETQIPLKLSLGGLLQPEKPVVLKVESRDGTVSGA
test description: CYP enzyme inhibition, fluorescent substrate
protocol conditions: read-out: Cyp IC50 (μM) 3A4(BQ); BQ substrate

The following compounds have reported results that may help.
INSERT INTO assay_data (compound_structure, observed_measurement) VALUES
  ('Cc1ccc(CNc2ccc(Cc3c[nH]c4ncc(C)cc34)c(F)n2)nc1', '> 10 µM'),
  ('Cc1cnc2[nH]cc(Cc3ccc(NCc4ccnc(F)c4)nc3F)c2c1', '> 10 µM'),
  ('COc1cnc2[nH]cc(Cc3ccc(NCc4ccc(Cl)cc4)nc3F)c2c1', '> 10 µM'),
  ('COc1ncc(CNc2ncc(Cc3c[nH]c4ncc(C)cc34)cn2)cc1F', '> 10 µM'),
  ('COc1ccc(CNc2ncc(Cc3c[nH]c4ncc(Cl)cc34)cn2)cn1', '> 10 µM');

Fill in IC50 for each of the 3 compounds listed.
1. COc1cnc2[nH]cc(Cc3ccc(NCc4ccc(OC)nc4)nc3F)c2c1
2. Cc1cnc2[nH]cc(Cc3cnc(NCc4cccc(N5CCCC5)n4)nc3)c2c1
3. Cc1cnc2[nH]cc(Cc3ccc(NCc4ccnc(C)c4)nc3F)c2c1

**Result**
["> 10 µM", "< 5 µM", "> 10 µM"]

====

system name: CYP2C9 (Homo sapiens (Human), UniProt P11712)
Sequence (P11712 whole entry): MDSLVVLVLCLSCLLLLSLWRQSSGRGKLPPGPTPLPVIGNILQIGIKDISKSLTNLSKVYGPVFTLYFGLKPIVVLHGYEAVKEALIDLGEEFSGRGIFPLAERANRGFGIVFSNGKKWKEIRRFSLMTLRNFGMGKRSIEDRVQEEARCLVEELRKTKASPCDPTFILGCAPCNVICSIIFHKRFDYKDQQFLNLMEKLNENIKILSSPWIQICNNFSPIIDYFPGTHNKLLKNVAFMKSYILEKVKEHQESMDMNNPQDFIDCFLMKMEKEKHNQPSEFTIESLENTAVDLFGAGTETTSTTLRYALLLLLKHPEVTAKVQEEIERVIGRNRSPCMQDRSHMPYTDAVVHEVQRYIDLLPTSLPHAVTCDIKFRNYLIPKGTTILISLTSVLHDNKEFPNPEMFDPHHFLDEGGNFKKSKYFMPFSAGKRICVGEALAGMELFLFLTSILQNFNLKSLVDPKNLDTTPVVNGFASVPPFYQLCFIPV
test description: CYP enzyme inhibition, fluorescent substrate
protocol conditions: human, 45 min
measure name: IC50

**Query** Find IC50 for Cc1cnc2[nH]cc(Cc3cnc(NCc4ccc(Cl)nc4)nc3)c2c1 [Compound P-2078] on CYP2C9 (Homo sapiens (Human), UniProt P11712) and write it down.
**Result** < 5 µM

====

system name: BCR-FMS/BaF3 cells (Homo sapiens, UniProt P07333)
Sequence (P07333 20-972 limits assumed, change not shown): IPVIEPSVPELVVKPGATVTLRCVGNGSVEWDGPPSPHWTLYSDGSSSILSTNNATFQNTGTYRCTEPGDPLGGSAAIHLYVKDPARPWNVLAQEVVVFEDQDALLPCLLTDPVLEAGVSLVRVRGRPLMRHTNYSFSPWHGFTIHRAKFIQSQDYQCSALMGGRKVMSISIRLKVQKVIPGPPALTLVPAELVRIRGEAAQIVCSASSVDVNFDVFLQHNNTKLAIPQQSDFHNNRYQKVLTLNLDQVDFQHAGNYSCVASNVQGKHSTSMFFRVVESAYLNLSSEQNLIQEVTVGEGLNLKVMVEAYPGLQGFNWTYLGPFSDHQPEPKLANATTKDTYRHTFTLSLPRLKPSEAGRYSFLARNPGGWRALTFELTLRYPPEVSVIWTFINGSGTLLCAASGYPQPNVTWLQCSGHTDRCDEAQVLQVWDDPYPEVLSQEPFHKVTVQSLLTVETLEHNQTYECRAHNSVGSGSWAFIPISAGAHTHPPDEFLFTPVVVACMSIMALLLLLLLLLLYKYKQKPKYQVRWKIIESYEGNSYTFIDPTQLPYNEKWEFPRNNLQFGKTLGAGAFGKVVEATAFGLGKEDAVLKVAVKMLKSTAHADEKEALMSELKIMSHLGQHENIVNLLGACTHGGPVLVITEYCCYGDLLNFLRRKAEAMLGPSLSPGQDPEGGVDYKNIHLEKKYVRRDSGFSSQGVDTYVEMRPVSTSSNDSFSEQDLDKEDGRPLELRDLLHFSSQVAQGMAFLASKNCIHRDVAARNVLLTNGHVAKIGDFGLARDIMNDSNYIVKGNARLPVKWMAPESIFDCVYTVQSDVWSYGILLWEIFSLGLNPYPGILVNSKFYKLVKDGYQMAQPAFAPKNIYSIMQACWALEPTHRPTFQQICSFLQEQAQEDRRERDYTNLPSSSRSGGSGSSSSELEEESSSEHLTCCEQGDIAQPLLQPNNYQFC
test description: BCR-FMS/BaF3 cell proliferation assay (ATPlite)
Type: cell-based
protocol conditions: Kit IC50/Fms IC50, BCR-KIT/BaF3 vs BCR-FMS/BaF3 cells
Exercise: for every item that follows, state its recorded BCR/BaF3 selectivity (Kit IC50/Fms IC50).

Sample records with BCR/BaF3 selectivity (Kit IC50/Fms IC50):
INSERT INTO assay_data (molecule, observed_measurement) VALUES
  ('COc1cnc2[nH]cc(Cc3ccc(NCc4cncc(F)c4)nc3F)c2c1 [Compound P-2028]', '>20'),
  ('Fc1ccc(CNc2ccc(Cc3c[nH]c4ncc(Cl)cc34)cn2)cn1 [Compound P-2004]', '<20'),
  ('COc1cnc2[nH]cc(Cc3ccc(NCc4ccc(Cl)cc4)nc3F)c2c1 [Compound P-2032]', '<20'),
  ('Cc1ccc(CNc2ccc(Cc3c[nH]c4ncc(C)cc34)c(F)n2)nc1 [Compound P-2131]', '<20'),
  ('COc1ccc(CNc2ccc(Cc3c[nH]c4ncc(Cl)cc34)cn2)c(OC)n1 [Compound P-1496]', '>20');

Hey, quick one: what's BCR/BaF3 selectivity (Kit IC50/Fms IC50) for each of these?
1. COc1ncccc1CNc1ccc(Cc2c[nH]c3ncccc23)c(F)n1 [Compound P-2045]
2. Cc1cnc2[nH]cc(Cc3ccc(NCc4ccc(C(F)(F)F)nc4)nc3)c2c1 [Compound P-2019]
3. Cc1cnc2[nH]cc(Cc3ccc(NCc4cnccc4C(F)(F)F)nc3F)c2c1 [Compound P-2062]

**Result**
[">20", "<20", ">20"]

====

system name: UniProt P10635
test description: CYP enzyme inhibition, fluorescent substrate
pIC50: −log10 of the molar value.
measure name: pIC50

**Query** State recorded pIC50 with UniProt P10635, entry "Fc1ccc(CNc2ccc(Cc3c[nH]c4ncc(Cl)cc34)cn2)cn1" , no comment.
**Result** 5.00 to 5.30

====

system name: CYP2C19 (Homo sapiens (Human))
Sequence (P33261 whole entry): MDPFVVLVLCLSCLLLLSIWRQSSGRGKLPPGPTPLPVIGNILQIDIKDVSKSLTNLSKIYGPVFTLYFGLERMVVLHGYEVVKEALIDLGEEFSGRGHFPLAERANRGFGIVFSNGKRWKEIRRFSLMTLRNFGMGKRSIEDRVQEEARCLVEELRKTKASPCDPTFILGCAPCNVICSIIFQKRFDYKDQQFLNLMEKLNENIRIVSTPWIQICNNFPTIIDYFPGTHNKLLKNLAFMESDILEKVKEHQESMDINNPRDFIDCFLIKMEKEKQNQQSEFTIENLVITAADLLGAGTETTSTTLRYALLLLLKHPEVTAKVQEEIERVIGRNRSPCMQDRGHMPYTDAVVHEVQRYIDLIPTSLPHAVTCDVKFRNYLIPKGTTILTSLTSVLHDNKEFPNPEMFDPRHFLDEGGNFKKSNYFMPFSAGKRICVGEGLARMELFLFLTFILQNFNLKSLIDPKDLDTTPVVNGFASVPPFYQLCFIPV
test description: CYP enzyme inhibition, fluorescent substrate
protocol conditions: read-out: Cyp IC50 (μM) 2C19
Assign IC50 to each entry below.

Illustrative cases are given below, each with its answer.
INSERT INTO assay_data (compound_structure, measure_name, observed_measurement) VALUES
  ('COc1cc(CNc2ccc(Cc3c[nH]c4ncc(C)cc34)c(F)n2)c(F)cn1', 'IC50', '> 10 µM'),
  ('COc1ncc(F)cc1CNc1ccc(Cc2c[nH]c3ncc(NC(C)=O)cc23)c(F)n1', 'IC50', '> 10 µM'),
  ('Cc1cnc2[nH]cc(Cc3ccc(NCc4ccc(Cl)nc4)nc3F)c2c1', 'IC50', '< 5 µM'),
  ('COc1cnc2[nH]cc(Cc3cnc(NCc4ccc(C(F)(F)F)nc4)c(F)c3)c2c1', 'IC50', '< 5 µM');

**Query** Please supply the value of reported IC50 for the item "Cc1cnc2[nH]cc(Cc3ccc(NCc4cnccc4C(F)(F)F)nc3F)c2c1"
**Result** < 5 µM

====

system name: CYP2C9 (Homo sapiens (Human), UniProt P11712)
test description: CYP enzyme inhibition, fluorescent substrate
protocol conditions: read-out: Cyp IC50 (μM) 2C9
measure name: IC50

In the examples that follow, each entry is paired with its recorded IC50.
INSERT INTO measurements (compound, system_name, observed_measurement) VALUES
  ('COc1cnc2[nH]cc(Cc3cnc(NCc4ccc(C(F)(F)F)nc4)c(F)c3)c2c1 [Compound P-2147]', 'CYP2C9 (Homo sapiens (Human), UniProt P11712)', '> 10 µM'),
  ('Fc1ccc(CNc2ccc(Cc3c[nH]c4ncc(Cl)cc34)cn2)cn1 [Compound P-2004]', 'CYP2C9 (Homo sapiens (Human), UniProt P11712)', '< 5 µM'),
  ('COc1ccc(CNc2ccc(Cc3c[nH]c4ncc(C)cc34)c(F)n2)cn1 [Compound P-2029]', 'CYP2C9 (Homo sapiens (Human), UniProt P11712)', '< 5 µM');

Items follow; give IC50 for each.
1. COc1ccc(CNc2ncc(Cc3c[nH]c4ncc(C)cc34)cc2F)cn1 [Compound P-1562]
2. COc1ncccc1CNc1ccc(Cc2c[nH]c3ncccc23)c(F)n1 [Compound P-2045]
3. COc1ccnc2[nH]cc(Cc3ccc(NCc4ccc(Cl)cc4)nc3F)c12 [Compound P-2037]

**Result**
< 5 µM
> 10 µM
< 5 µM

====

system name: CYP1A2 (Homo sapiens (Human), UniProt P05177)
Sequence (P05177 whole entry): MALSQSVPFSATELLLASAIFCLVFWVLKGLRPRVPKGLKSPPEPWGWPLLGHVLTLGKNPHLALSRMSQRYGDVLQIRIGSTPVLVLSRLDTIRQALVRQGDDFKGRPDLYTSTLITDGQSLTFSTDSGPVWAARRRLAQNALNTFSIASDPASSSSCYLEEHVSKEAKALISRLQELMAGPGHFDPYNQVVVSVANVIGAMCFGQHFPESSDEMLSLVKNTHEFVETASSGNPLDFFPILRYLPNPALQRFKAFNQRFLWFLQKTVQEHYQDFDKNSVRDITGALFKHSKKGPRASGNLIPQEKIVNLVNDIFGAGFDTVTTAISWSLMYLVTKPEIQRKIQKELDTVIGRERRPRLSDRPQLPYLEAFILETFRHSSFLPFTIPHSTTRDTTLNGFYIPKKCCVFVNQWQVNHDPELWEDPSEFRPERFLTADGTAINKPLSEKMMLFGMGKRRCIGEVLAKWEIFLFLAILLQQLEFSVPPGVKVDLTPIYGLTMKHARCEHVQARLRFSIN
test description: CYP enzyme inhibition, fluorescent substrate
protocol conditions: human, 15 min
Experimental: CYP (Cytochrome P450) enzymes are the major drug metabolizing enzymes present in the liver. The inhibition of CYP enzyme activity (IC50) for each of CYP1A2, CYP2C19, CYP2C9, CYP2D6, CYP3A4(BFC) and CYP3A4(BQ) is determined for compounds, where inhibition of metabolism of a known substrate leads to a decrease in the fluorescence of the metabolized product. The fluorescence of the product is monitored as a function of compound concentration. […]
measure name: IC50

Below, each entry is followed by its recorded IC50 result.
INSERT INTO results (compound, observed_measurement) VALUES
  ('COc1ncccc1CNc1ccc(Cc2c[nH]c3ncccc23)c(F)n1 [Compound P-2045]', '> 10 µM'),
  ('COc1ccnc2[nH]cc(Cc3ccc(NCc4ccc(Cl)cc4)nc3F)c12 [Compound P-2037]', '> 10 µM'),
  ('Cc1cnc2[nH]cc(Cc3cnc(NCc4cccc(N5CCOCC5)n4)nc3)c2c1 [Compound P-2081]', '> 10 µM');

Please turn your attention to the following entry.
**Query** Write down the reported IC50 (system: CYP1A2 (Homo sapiens (Human), UniProt P05177)) of COc1ncc(F)cc1CNc1ncc(Cc2c[nH]c3ncc(Cl)cc23)cn1 [Compound P-2064]
**Result** > 10 µM
